System: Mus musculus
Experiment: Total number of entries into the open and closed arms of the maze for anxiolytic activity in ICR mouse through elevated plus test after intraperitoneal injection of 15 mg/kg
Assay type: functional
Field: Total number of entries. Provide a value for each of the molecules that follow.
Answers are plain numbers.

Study these solved cases before continuing.
>  <molecule>
C[S+]([O-])c1ccc(/C=C2\OC(=O)c3ccccc32)cc1 (stereo not drawn)

>  <Total number of entries>
19.8

$$$$
>  <molecule>
CS(=O)(=O)c1ccc(/C=C2\OC(=O)c3ccccc32)cc1

>  <Total number of entries>
16.4

$$$$

Please report Total number of entries for every entry that follows.
1. CCCCCCCCCCCC(=O)OCCOCC(OCCO)C1OCC(OCCO)C1OCCO (stereo not drawn)
2. C=C(C)[C@@H]1[C@H]2OC(=O)[C@@H]1[C@]1(O)C[C@H]3OC34C(=O)O[C@H]2[C@@]41C.CC(C)(O)[C@@H]1[C@H]2OC(=O)[C@@H]1[C@]1(O)C[C@H]3OC34C(=O)O[C@H]2[C@@]41C (stereo partly drawn) [PICROTOXIN]
3. O=C1O/C(=C\c2ccc3c(c2)OCO3)c2ccccc21

[18.5, 11.8, 20.2]

State the recorded Total number of entries for every item in the following list.
1. COc1ccc(/C=C2\OC(=O)c3ccc(C(N)=O)cc32)cc1
2. O=C1O/C(=C\c2ccc([N+](=O)[O-])cc2)c2ccccc21
3. COc1cc(/C=C2\OC(=O)c3ccccc32)cc(OC)c1OC
4. O=C1O/C(=C\c2ccc(Cl)cc2)c2ccccc21
5. COc1ccc(/C=C2\OC(=O)c3ccccc32)cc1
6. COc1ccc(/C=C2\OC(=O)c3cc([N+](=O)[O-])c([N+](=O)[O-])cc32)cc1
7. CN1C(=O)CN=C(c2ccccc2)c2cc(Cl)ccc21 [DIAZEPAM]
8. CSc1ccc(/C=C2\OC(=O)c3ccccc32)cc1

1. 24
2. 16.3
3. 17.3
4. 16.5
5. 20.1
6. 22.2
7. 19.5
8. 17.7

====

System: Mus musculus
Assay: Number of entries into the closed arms of the maze for anxiolytic activity in ICR mouse through elevated plus test after intraperitoneal injection of 15 mg/kg
Type: functional
property.name: No. of entries
Give bare numbers.

>  <mol.smiles>
CS(=O)(=O)c1ccc(/C=C2\OC(=O)c3ccccc32)cc1

>  <No. of entries>
5.6

$$$$

Your task in this section: give No. of entries for each listed record.
1. COc1cc(/C=C2\OC(=O)c3ccccc32)cc(OC)c1OC
2. O=C1O/C(=C\c2ccc([N+](=O)[O-])cc2)c2ccccc21
3. O=C1O/C(=C\c2ccc(Cl)cc2)c2ccccc21

[9, 7.3, 8.5]

====

Can you tell me No. of entries for the items I'm about to list?
Tested on: Mus musculus
Test: Number of entries into the open arms of the maze for anxiolytic activity in ICR mouse through elevated plus maze test after intraperitoneal injection of 15 mg/kg
Format: functional

As a guide, the following entries are already answered.
>  <molecule>
COc1cc(/C=C2\OC(=O)c3ccccc32)cc(OC)c1OC

>  <target.under.test>
Mus musculus

>  <No. of entries>
8.3

$$$$
>  <molecule>
COc1ccc(/C=C2\OC(=O)c3ccc(C(N)=O)cc32)cc1

>  <target.under.test>
Mus musculus

>  <No. of entries>
13

$$$$

Working through the 2 molecules below one at a time, give No. of entries for each.
1. CS(=O)(=O)c1ccc(/C=C2\OC(=O)c3ccccc32)cc1
2. CCCCCCCCCCCC(=O)OCCOCC(OCCO)C1OCC(OCCO)C1OCCO (stereo not drawn)

1: 10.6; 2: 9.6

For every item in the list below, what is its measured No. of entries?
1. O=C1O/C(=C\c2ccc3c(c2)OCO3)c2ccccc21
2. O=C1O/C(=C\c2ccc([N+](=O)[O-])cc2)c2ccccc21
3. C=C(C)[C@@H]1[C@H]2OC(=O)[C@@H]1[C@]1(O)C[C@H]3OC34C(=O)O[C@H]2[C@@]41C.CC(C)(O)[C@@H]1[C@H]2OC(=O)[C@@H]1[C@]1(O)C[C@H]3OC34C(=O)O[C@H]2[C@@]41C (stereo partly drawn)
4. CSc1ccc(/C=C2\OC(=O)c3ccccc32)cc1
5. COc1ccc(/C=C2\OC(=O)c3cc([N+](=O)[O-])c([N+](=O)[O-])cc32)cc1
6. COc1ccc(/C=C2\OC(=O)c3ccccc32)cc1
7. C[S+]([O-])c1ccc(/C=C2\OC(=O)c3ccccc32)cc1 (stereo not drawn)
8. O=C1O/C(=C\c2ccc(Cl)cc2)c2ccccc21

1. 11.2
2. 9
3. 2.5
4. 7.9
5. 11.7
6. 13
7. 10.8
8. 8

Would you kindly share the measured No. of entries for CN1C(=O)CN=C(c2ccccc2)c2cc(Cl)ccc21 ?
15.8

====

Test system: Mus musculus
Assay: Number of entries into the closed arms of the maze for anxiolytic activity in ICR mouse through elevated plus test after intraperitoneal injection of 15 mg/kg
Assay type: functional
For each entry below, report its No. of entries value.
Numbers only.

Past entries and their recorded results:
>  <compound>
COc1ccc(/C=C2\OC(=O)c3cc([N+](=O)[O-])c([N+](=O)[O-])cc32)cc1

>  <obs.value>
10.5

$$$$
>  <compound>
CCCCCCCCCCCC(=O)OCCOCC(OCCO)C1OCC(OCCO)C1OCCO (centres undefined)

>  <obs.value>
8.9

$$$$
>  <compound>
C[S+]([O-])c1ccc(/C=C2\OC(=O)c3ccccc32)cc1 (centres undefined)

>  <obs.value>
9

$$$$
>  <compound>
COc1ccc(/C=C2\OC(=O)c3ccccc32)cc1

>  <obs.value>
7.1

$$$$
>  <compound>
COc1ccc(/C=C2\OC(=O)c3ccc(C(N)=O)cc32)cc1

>  <obs.value>
11.5

$$$$

Parameters: items (list). Returns: No. of entries for each item.
1. CSc1ccc(/C=C2\OC(=O)c3ccccc32)cc1
2. CN1C(=O)CN=C(c2ccccc2)c2cc(Cl)ccc21 [DIAZEPAM]

1. 9.9
2. 3.7

Please supply No. of entries for each of the following items, keeping them in order.
1. C=C(C)[C@@H]1[C@H]2OC(=O)[C@@H]1[C@]1(O)C[C@H]3OC34C(=O)O[C@H]2[C@@]41C.CC(C)(O)[C@@H]1[C@H]2OC(=O)[C@@H]1[C@]1(O)C[C@H]3OC34C(=O)O[C@H]2[C@@]41C (some centres undefined) [PICROTOXIN]
2. O=C1O/C(=C\c2ccc3c(c2)OCO3)c2ccccc21

9.4
9
